Data credit: the supplement of paper PMC11865577

- Tested on: G-clamp-N3 (biotin conjugate)
- experimental-protocol: pull-down binding Z-score (relative to library population); higher = stronger binding
- reported-conditions: RNA library: Library-1 (pre-miRNA loops + repeats)
Mark false (0) for pull-down binding Z-score values under -0.3, and true (1) for everything at or above.

See these solved cases before continuing.
UGUAAAUAACUACAAUUCUCUUAACUCCGUAGCAGUUGC [hsa-mir-7844]    false (0)
UGUUCAUGUCUCUCUGUGCACAGGGGACGAGAGUCA [hsa-mir-4420]    true (1)
GCCAUGGAAAGUAAUGGC [hsa-mir-548ax]    true (1)

Identify whether the reported pull-down binding Z-score of the following sequence is -0.3 or greater: ACAAUUAUGAAAGAAAAGAAAUUGU [hsa-mir-3611]
true (1)

And the next one, CACUCCCGGGAUCCCCAGGGAC [hsa-mir-3176] ?
false (0)

And the next one, AGUGAGUUGAUUACUUCUCACU [hsa-mir-4676] ?
true (1)

And the next one, GCAGAUUCUCUCUCUC [hsa-mir-4279] ?
false (0)

And the next one, GAUUUCUAUGAGAACAUC [hsa-mir-3675] ?
false (0)

And the next one, UUAGCCCAGCAAUGGGAGAGUGCUAA [hsa-mir-4636] ?
true (1)

And the next one, GCAGUCUGCUUUGUGCCAACACUGGGGUGAUGACUGC [hsa-mir-3157] ?
true (1)

And the next one, GCAAGGCUGUAGUGUGCACAGCCUUGA [hsa-mir-4452] ?
false (0)

----------
- Test system: TO-3-N3 (biotin conjugate)
- experimental-protocol: pull-down binding Z-score (relative to library population); higher = stronger binding
- reported-conditions: RNA library: Library-2
Mark not satisfied for pull-down binding Z-score values under -0.2, and satisfied for everything at or above.

See these solved cases before continuing.
GACUCUGAGCCAGUGCUCAAAGGAGUC    not satisfied
CCAUGGGACAGGAACAGGAUACACCAUGG [IAV_invivo_PB1_2_Motif_4+IAV_invivo_PB1_2_Motif_4]    not satisfied
AGUUGCUUACUCUAAUAACU [DMSMaPseq_invitro_SARS-CoV-2_Motif_421]    satisfied
CUGUCACUAAG    not satisfied
CGAGGUGGGCUAGGCUCGGGCCCGUGGCG [hsa-mir-3656]    satisfied
AGUCACUUAGAUUACAUGUGACU [hsa-mir-888]    satisfied

Identify whether the reported pull-down binding Z-score of the following sequence is -0.2 or greater: UAAUGGUUUAACUUCUAUUA [DMSMaPseq_invitro_SARS-CoV-2_Motif_100]
not satisfied

And the next one, UGGUUGAAUAUGUGAAUGGCAUCG [hsa-mir-449a] ?
satisfied

And the next one, UUCUUCCUGGAGUCGGGGAAAAG [hsa-mir-320e] ?
satisfied

And the next one, GCGCUGCCAGAAACUGGCCCAGCGC [bulge-CC] ?
satisfied

And the next one, GUUUUUGUACACAAUUAAACCGUGCUUUAACUGGAAUAGCUGUUGAACAAGACAAAAAC [DMSMaPseq_invitro_SARS-CoV-2_Motif_424] ?
satisfied

And the next one, GUGCUAAGCAC ?
satisfied

And the next one, CCAUGGGGGCCUUGCUGUGU [hsa-mir-6808] ?
satisfied

And the next one, UGGGUUACAUCCUACACAGGCACCUACACACCUCAGUGUUGACACUAAAUUCAAAACUGAAGGUUUAUGUGUUGACAUACCUGGCAUACCUAAGGACAUGACCUA ?
not satisfied

And the next one, CUAGUAUGUCUCAUCCCCUACUAG [hsa-mir-151a] ?
satisfied

And the next one, GUGAUGUGAGGAGCAACAGGCACCCUCCU [hsa-mir-6792] ?
satisfied

And the next one, AGCCCUGGGCUCCUCAGCAAACCUACUGGAU [hsa-mir-3174] ?
satisfied

And the next one, GACAGGGCAGAGGGUUGCGCCCCCUC [hsa-mir-6511b-1_6511b-2_6511a-2_6511a-3_6511a-1_6511a-4] ?
satisfied

And the next one, UCCGUAAGUAGGAUACUUACCUG [U1snRNP5ss-21] ?
not satisfied

And the next one, ACCUUUAAUUGAAUUGUGCGUGGAUGAGGCUGGUUCUAAAUCACCCAUUCAGUACAUCGAUAUCGGU [SHAPE_invivo_SARS-CoV-2_Motif_532] ?
not satisfied
